# Species: Homo sapiens
# experimental_details: Inhibitory potential of hdm2-binding peptides in a Human wild type p53/hdm2 (GST-hdm2 1-188) competition assay
# Assay type: functional
# particulars: Homo sapiens
readout_label: IC50 (µM)

{"substance": "Ac-MPRFMDYWEGLN-NH2", "value_observed": 0.313}

P: H-TFSDLW-OH
Q: Ac-FMDYWEGL-NH2
-- ask Please choose the item with the lower IC50 value from this pair: P and Q Answer with the label corresponding to your selection.
-- reply Q
